- System: Anopheles arabiensis
- testDetails: Larvicidal screening (WHO protocol), 3rd instar larvae
- Assay type: in vivo
- measurementConditions: Anopheles arabiensis, 48 h, read-out: Mortality 48 h
measurementLabel: mortality at 4 µg/mL (%)
Give your result in % as a bare value.

response.value for COC(=O)c1c(C(=O)OC)c2cc(C(=O)OC(C)C)ccn2c1C(=O)c1ccccc1 (field: mortality at 4 µg/mL) = 45.5

The measured mortality at 4 µg/mL associated with COC(=O)c1c(C(=O)OC)c2cc(C(=O)OC(C)C)ccn2c1C(=O)c1ccc(C#N)cc1 reads 63.8

Quick note, mortality at 4 µg/mL for COC(=O)c1c(C(=O)OC)c2cc(C(=O)OC(C)C)ccn2c1C(=O)c1cc(C(F)(F)F)cc(C(F)(F)F)c1 landed at 99.5

Per the records, this compound ( CCOC(=O)c1cc(C(=O)c2ccc(Br)cc2)n2ccc(C(=O)OC(C)C)cc12 ) has mortality at 4 µg/mL equal to 86.7

Documented mortality at 4 µg/mL of COP(=S)(OC)Oc1ccc(Sc2ccc(OP(=S)(OC)OC)cc2)cc1 [Temephos, reference compound] : 100

Quick note, mortality at 4 µg/mL for COC(=O)c1c(C(=O)OC)c2cc(C(=O)OC(C)C)ccn2c1C(=O)c1ccc(Br)cc1 landed at 91.1

# mortality at 4 µg/mL of CCOC(=O)c1cc(C(=O)c2ccc(Cl)cc2)n2ccc(C(=O)OC(C)C)cc12 = 69.2

Please fill in: mortality at 4 µg/mL reported for COC(=O)c1c(C(=O)OC)c2cc(C(=O)OC(C)C)ccn2c1C(=O)c1ccc(F)cc1 = 82.3

So for CCOC(=O)c1cc(C(=O)c2ccccc2)n2ccc(C(=O)OC(C)C)cc12 , the logged mortality at 4 µg/mL turned out to be 36.8

The compound CCOC(=O)c1cc(C(=O)c2ccc(F)cc2)n2ccc(C(=O)OC(C)C)cc12 showed mortality at 4 µg/mL equal to 91.2

Entry COC(=O)c1c(C(=O)OC)c2cc(C(=O)OC(C)C)ccn2c1C(=O)c1ccc(Cl)cc1 ; mortality at 4 µg/mL = 70.9

Looking up CCOC(=O)c1cc(C(=O)c2ccc(C#N)cc2)n2ccc(C(=O)OC(C)C)cc12 , I see its mortality at 4 µg/mL listed as 66.1

Reported mortality at 4 µg/mL for COC(=O)c1c(C(=O)OC)c2cc(C(=O)OC(C)C)ccn2c1C(=O)c1ccc(C)cc1 was 60

---

Measured mortality at 4 µg/mL values are reported for all entries that follow.
- Tested on: Anopheles arabiensis
- testDetails: Larvicidal screening (WHO protocol), 3rd instar larvae
- Format: in vivo
- measurementConditions: Anopheles arabiensis, 24 h, read-out: Mortality 24 h
Number only, in %; omit the unit.

mortality at 4 µg/mL in this record for COC(=O)c1c(C(=O)OC)c2cc(C(=O)OC(C)C)ccn2c1C(=O)c1ccc(C)cc1 : 57.5

Others:
mortality at 4 µg/mL reading for COC(=O)c1c(C(=O)OC)c2cc(C(=O)OC(C)C)ccn2c1C(=O)c1cc(C(F)(F)F)cc(C(F)(F)F)c1 : 97.2

Reported mortality at 4 µg/mL ( COC(=O)c1c(C(=O)OC)c2cc(C(=O)OC(C)C)ccn2c1C(=O)c1ccc(Br)cc1 ) = 89.4

Provenance of the data: patent US11981674B1
